- measurement_protocol: E. coli DRC41 culture turbidity changes, primary screen, E. coli filamentation inducer project, strain DRC41, OD650, 48 h (AID 1152);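 also: E. coli MC1000 strain DRC41 lacking acrAB efflux pump and sulA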
- condition_description: E. coli DRC41 (acrAB sulA), higher = more signal, called active from +8 up or from −8 down
Use -0.03 as the dividing line for z-score, with the line itself on the yes side and lower values as no.

• CC(C)[C@@H](OCc1ccccc1)[C@H](C)C=NO[C@H](C)c1cn([C@H](CO)Cc2ccccc2)nn1 = no
• CCCNC(=O)OC[C@H]1O[C@H](CCON=CC[C@@H]2C=C[C@H](OC(C)=O)[C@@H](COC(C)=O)O2)C=C[C@@H]1Oc1ccc(OC)cc1 = no
• COC(=O)CC=C[C@H](C)[C@H](CO)NS(=O)(=O)c1ccc(C)cc1 = no
• COC(=O)C1(C)C=C2C(=C(c3ccccc3)C(=O)C2C)CN1 (centres undefined) = no
• CO[C@H]1O[C@H](CO)[C@@H](OC(=O)Nc2ccc3c(c2)OCO3)[C@H](OC(=O)Nc2ccccc2-c2ccccc2)[C@@H]1OC(=O)Nc1ccccc1-c1ccccc1 = yes
• CCOC(=O)C[C@H]1[C@H](OC(=O)c2ccc(C(=O)c3ccccc3)cc2)[C@@H](NC(=O)c2ccc(-c3ccccc3)cc2)c2cc(OCCCO)ccc2N1C(=O)c1ccc2ccccc2n1 = yes
• COc1cccc([C@@H]2Oc3ccc(Br)cc3C(=O)[C@H]2O)c1 = yes
• C[C@@H]1CC[C@H]2C(=O)O[C@H](COc3ccc(C(C)(C)C)cc3)CN2[C@H]1c1ccc(Br)cc1 = no
• C[C@@H](c1ccccc1)N1C(=O)[C@H]2[C@H]3[C@H](O)C=CC(=O)[C@@H]3CC[C@H]2C1=O = no

###

- Tested on: XIP peptide (Xip251-270)
- measurement_protocol: small-molecule binders of XIP peptide, primary screen, biochemical, small-molecule microarray, fluorescence 635/667 nm, 0.5 µg/mL protein (AID 1183)
- condition_description: small-molecule microarray binding, fluorescence 635 nm; higher = more signal
Use 0.4 as the dividing line for composite z-score, with the line itself on the True side and lower values as False.

• O=C1O[C@@H](c2ccccc2)[C@@H](c2ccccc2)N2[C@@H](c3ccc(OCCO)cc3)[C@]3(C(=O)Nc4ccccc43)[C@@H](C(=O)N3CCN(c4ncccn4)CC3)[C@H]12 = True
• CCOC(=O)CCN1C(=O)[C@H]2[C@H]3[C@H](O)[C@H](O)CC(=NOCc4ccccc4)[C@@H]3CC[C@H]2C1=O = True
• O=C(CS)NCCCCCNC(=O)[C@H]1C[C@H]2C(=O)N3CCC[C@H]3C(=O)N2[C@H]1c1cccc(OCCO)c1 = True
• COC(=O)[C@H](C)NC(=O)[C@@H](C)CO = False
• CC(C)[C@@H](OCc1ccccc1)[C@H](C)C=NO[C@H](C)c1cn([C@H](CO)Cc2ccccc2)nn1 = False
• CCc1cc2c(nc1CC)CCN(CCC(C)=NOC(C)CN1CCCc3nc(C)c(C)cc31)C2 (stereo not drawn) = True
• C[C@@H](c1ccccc1)N1C(=O)[C@H]2[C@H]3[C@H](O)[C@H](O)CC(=NOC[C@@H](O)COCc4ccco4)[C@@H]3CC[C@H]2C1=O = False
• CO[C@@H]1COC(=O)CC=C[C@@H](C)[C@H](OC)COC(=O)[C@H](COCc2ccccc2)NC(=O)CC=C[C@H]1C = False

###

# key: entry, value: composite z-score
- measurement_protocol: small-molecule microarray binders of probe aNog, primary screen, biochemical, biotinylated probe, 635/667 nm fluorescence (AID 1115);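 also: probe is biotinylated aNog protein used at 0.15 µg/mL for 1 h at 4 C; z-score combines 667 nm fluorescence of each spot with its signal to noise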
- condition_description: higher = more signal
reported_endpoint: composite z-score

* CC(C)(C)N1CC=CC23O[C@@H]4C=CCCOC(=O)C4[C@H]2C(=O)N(CCCCCO)[C@@H]3C1=O (stereo partly drawn) | -0.206
* CCOC(=O)[C@H](Cc1ccccc1)NC(=O)CCC1CC(OC(=O)NCc2ccc3c(c2)OCO3)CC2(CCCC(COC(=O)NCC3CCCCC3)O2)O1 (stereo partly drawn) | -0.167
* CCOC(=O)C1=CC[C@H]2C(=O)N(CC)C(=O)[C@@H]12 | -0.0184
* COCCNC(=O)OCC1CCCC2(CC(OC(=O)NCCc3ccc(F)cc3)CC(CCC(=O)N[C@@H](C)C(=O)OC)O2)O1 (stereo partly drawn) | -0.0827
* CN(C)C(=O)[C@@]1(Cc2ccccc2)N=C(c2ccc(OCCCO)cc2)O[C@H]1c1ccccc1CN=[N+]=[N-] | -0.18
* C=C(CCCC)C(=O)CC[C@@H](OC(C)=O)c1cccc(OCCO)c1 | -0.0381
* CCCNC(=O)[C@@H]1c2ccccc2C(=O)N(Cc2ccccc2Cl)[C@H]1c1ccc(CO)cc1 | 0.546
* CCN1C(=O)[C@H]2[C@H]3[C@H](O)[C@H](O)CC(=NOC(C)CN4CCCCc5nc(C)c(C)cc54)[C@@H]3CC[C@H]2C1=O (stereo partly drawn) | -0.0489

###

- test_target: NADPH oxidase 2 (Homo sapiens)
- measurement_protocol: NOX2-dependent H2O2 signal modulators, primary screen, NOX inhibitor project, cell-based, HEK293-NOX2, PMA-stimulated, Amplex Red fluorescence (AID 1159)
- condition_description: 45 min, higher = more signal, called active from +8 up or from −8 down
reported_endpoint: z-score

* N#Cc1ccc(NN2C(C(O)c3cccc4ccccc34)C=CC3C(=O)N(c4ccccc4)C(=O)C32)cc1 (stereo not given) | -1.58
* O=C(CS)NCCCCCNC(=O)[C@H]1C[C@H]2C(=O)N3CCC[C@H]3C(=O)N2[C@H]1c1cccc(OCCO)c1 | 1.45
* Cc1cc(C)c(-c2cc([C@H](C)ON=C3[C@H]4CCn5c(=O)n(-c6ccccc6)c(=O)n5[C@H]4[C@H](O)[C@@H]4O[C@H]34)on2)c(C)c1 | 0.0599
* CCCNC(=O)OC[C@H]1O[C@H](CCON=C2[C@H]3CCn4c(=O)n(-c5ccccc5)c(=O)n4[C@H]3[C@H](O)[C@@H]3O[C@H]23)C=C[C@@H]1Oc1ccc(OC)cc1 | -1.58
* CCOC(=O)NN=C1C[C@@H](O)[C@@H](O)[C@@H]2[C@@H]3C(=O)N(C4CCCCC4)C(=O)[C@@H]3CC[C@@H]12 | -0.000129

###

- test_target: Calmodulin-1 (Homo sapiens) (UniProt P0DP23)
- measurement_protocol: CALM1 binders on microarrays, EGTA buffer, profiling panel, biochemical, small-molecule microarray, Cy5-labelled CALM1 (AID 1111);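 also: labelled calmodulin applied in Tris saline Tween buffer holding calcium plus EGTA and DTT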
- condition_description: Cy5-CALM1 binding fluorescence, higher = more signal
reported_endpoint: composite z-score

- CCOc1ccc(N2C(=O)/C(=C/C=C/c3ccccc3OC)S(=O)(=O)C2c2cccc([N+](=O)[O-])c2)cc1 (stereo not drawn): 1.27
- CC(C)OC(=O)C=C1C[C@@H](c2ccc(C#N)cc2)O[C@@H](c2ccc(C#N)cc2)O1: 0.857
- COc1ccc(O[C@H]2C=C[C@@H](c3ccccc3)O[C@@H]2COC(=O)CCC(C)=NO[C@H](C)c2cn([C@@H]3COC[C@H]3O)nn2)cc1: -0.121

###

- test_target: Calmodulin-1 (Homo sapiens) (UniProt P0DP23)
- measurement_protocol: calcium-bound CALM1 binders on microarrays, profiling panel, artefact control for SMM control-protein annotation, biochemical, small-molecule microarray, Cy5-labelled CALM1, plus calcium (AID 1112);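 also: score merges spot fluorescence with signal to noise from triplicate slides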
- condition_description: Cy5-CALM1 binding fluorescence, higher = more signal
reported_endpoint: composite z-score

* C=CC[C@@H]1C=C[C@H](ON=Cc2ccc(C(=O)N3[C@H](c4ccc(C)cc4)[C@@H](C)CC[C@H]3C(=O)OC)cc2)[C@@H](CO)O1 | -0.621
* COc1ccc(COC(=O)NN=C2C[C@@H](O)[C@@H](O)[C@@H]3[C@@H]4C(=O)N(c5ccc(F)cc5F)C(=O)[C@@H]4CC[C@@H]23)cc1 | -0.325
* CO[C@@H]1COC(=O)CC=C[C@@H](C)[C@@H]2C=C[C@H](O)[C@@H](COC(=O)CCC[C@H]1C)O2 | -1.7

###

- Tested on: Inhibin beta A chain (activin A)
- measurement_protocol: INHBA (activin A) binders on microarrays, primary screen, biochemical, small-molecule microarray, 635 nm fluorescence scan (AID 1107);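 also: mouse activin A protein probed at 4.33 µg/mL on printed slides; score merges bound-protein fluorescence near 667 nm with spot signal-to-noise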
- condition_description: small-molecule microarray binding, higher = more signal
# key: entry, value: composite z-score
reported_endpoint: composite z-score

* CO[C@H]1COC(=O)[C@H](C)COC(=O)CC=C[C@@H](C)[C@H](OC)COC(=O)CC=C[C@@H]1C | 1.28
* CC(C)c1ccc(NN2C(C(O)c3ccc4c(c3)OCO4)C=CC3C(=O)N(c4ccccc4)C(=O)C32)cc1 (configuration not stated) | 0.581
* CCCCC(=C=CC[C@H](O)c1ccccc1OCCO)C[C@H](O)COCc1ccccc1 | 0.778
* C=C(/C(=C/C[C@@H](OC(=O)c1ccncc1)c1ccc(OCCO)cc1)c1cnc2ccccc2c1)C(C)C | 1.56
* C=CCC(OC(C)=O)[C@@H]1[C@@H](N(Cc2cc3ccccc3o2)C(=O)Cc2ccc(F)cc2)c2cc(OCCCO)ccc2N1C(=O)Cc1ccc(OC)cc1 (some centres not stated) | 0.772
* CC(=O)O[C@H]1C2=C(C(=O)[C@@H]3O[C@@H]31)[C@H]1C(C)O[C@@H]2[C@@]23C(=O)[C@@H]4O[C@@H]4[C@@H](O)C2=CO[C@H](C)[C@@H]13 (some centres not stated) | 0.702
* O=C1[C@H]2[C@H]3[C@H](O)[C@H](O)CC(=NO[C@@H]4O[C@H](CO)[C@@H](O)[C@H](O)[C@H]4O)[C@@H]3CC[C@H]2C(=O)N1Cc1ccc2c(c1)OCO2 | -0.292
